The origin of these recorded values is paper PMC6522510.

Provide the reported pEC50 of each item.
tested on: MOLM-13; test: cells; parameters: species or system AML cell lines (8); Secondary HTS, 10-point dose-response in triplicate, Cell Titer Glo viability, four-parameter fit EC50; details: Homo sapiens, MOLM-13, 72 h, read-out: MOLM-13
pEC50: −log10 of the molar value.

Qu. Kindly state the measured pEC50 obtained for Cc1ccc(NCCCc2ccccc2)c(N)c1 with MOLM-13.
Ans. < 5.00

Qu. Kindly state the measured pEC50 obtained for COc1cc2ncnc(-n3nc(-c4ccccn4)nc3N)c2cc1OC with MOLM-13.
Ans. < 5.00

Qu. Kindly state the measured pEC50 obtained for CS(=O)(=O)N1CCN(Cc2cc3nc(-c4cccc5[nH]ncc45)nc(N4CCOCC4)c3s2)CC1 with MOLM-13.
Ans. < 5.00

Qu. Kindly state the measured pEC50 obtained for COC(=O)[C@H](CC(C)C)NC(=O)c1ccc(NC[C@@H](N)CS)cc1-c1cccc2ccccc12 with MOLM-13.
Ans. 5.19

Qu. Kindly state the measured pEC50 obtained for CC(C)(C#N)c1cc(Cn2cncn2)cc(C(C)(C)C#N)c1 with MOLM-13.
Ans. < 5.00

Qu. Kindly state the measured pEC50 obtained for CC(/C=C/C(=O)NO)=C\[C@@H](C)C(=O)c1ccc(N(C)C)cc1 with MOLM-13.
Ans. 7.11

Qu. Kindly state the measured pEC50 obtained for N[C@H](CCC(=O)N[C@@H](Cc1c[nH]c2ccccc12)C(=O)O)C(=O)O with MOLM-13.
Ans. < 5.00

Qu. Kindly state the measured pEC50 obtained for CC(C)c1cc(C(=O)N2Cc3ccc(CN4CCN(C)CC4)cc3C2)c(O)cc1O with MOLM-13.
Ans. 8.03

###

system: MOLM-13; set-up: species or system AML cell lines (8); Primary HTS, single concentration about 10 uM, Cell Titer Glo viability; log10 luminescence, per cent inhibition relative to cycloheximide control; conditions: 72 h, relative to cycloheximide control, log10 luminescence; inhibitor
Provide the reported MOLM-13 %inh of each item.
Give just the number in %; leave the unit off.

Qu. # MOLM-13 %inh lookup, item CC(C)(S)[C@@H](N)C(=O)O
Ans. 4.905

Qu. # MOLM-13 %inh lookup, item FC(F)(F)c1ccc(-c2nn3ncccc3c2-c2ccnc(Nc3ccc4c(c3)OCCO4)n2)cc1
Ans. -3.312

Qu. # MOLM-13 %inh lookup, item CC[C@@H]([C@H](C)O)n1ncn(-c2ccc(N3CCN(c4ccc(OC[C@@H]5CO[C@@](Cn6cncn6)(c6ccc(F)cc6F)C5)cc4)CC3)cc2)c1=O
Ans. -0.6762

Qu. # MOLM-13 %inh lookup, item Fc1cccc(COc2ccc(Nc3ncncc3C#Cc3ccccc3)cc2Cl)c1
Ans. -0.1156

Qu. # MOLM-13 %inh lookup, item COc1cccc(COc2cc(-n3cnc4ccccc43)sc2C(N)=O)c1
Ans. 4.701

Qu. # MOLM-13 %inh lookup, item C[C@]12CCC(=O)C=C1CC[C@@H]1[C@@H]2C(=O)C[C@@]2(C)[C@H]1CC[C@]2(O)C(=O)CO
Ans. -2.413

Qu. # MOLM-13 %inh lookup, item CC(C)[N+](C)(CCC(C(N)=O)(c1ccccc1)c1ccccc1)C(C)C [SJ000285636-4, ISOPROPAMIDE IODIDE]
Ans. 19.61

Qu. # MOLM-13 %inh lookup, item Cc1ccc(C(=O)NC2CC2)cc1-c1ccc2[nH]ncc2c1
Ans. -2.369

Qu. # MOLM-13 %inh lookup, item Cc1ccc(C(=O)Cn2c3c(sc2=N)CCCC3)cc1
Ans. 4.765

Qu. # MOLM-13 %inh lookup, item C[C@@H](O)[C@@H]1NC(=O)[C@H](CCCCN)NC(=O)[C@@H](Cc2c[nH]c3ccccc23)NC(=O)[C@H](Cc2ccccc2)NC(=O)[C@@H](NC(=O)[C@H](N)Cc2ccccc2)CSSC[C@@H](C(=O)N[C@H](CO)[C@@H](C)O)NC1=O [SJ000520506-1, OCTREOTIDE ACETATE]
Ans. 0.6504

Qu. # MOLM-13 %inh lookup, item O=C(O)Cc1cccc2c(=O)c([N+](=O)[O-])c(-c3ccccc3[N+](=O)[O-])oc12
Ans. -3.246

Qu. # MOLM-13 %inh lookup, item COc1cc(C)c(N(C)C(=O)CN(C)C)cc1Nc1nc(Nc2cccc(F)c2C(N)=O)c2cc[nH]c2n1
Ans. -1.115

Qu. # MOLM-13 %inh lookup, item COC(=O)CCC(=O)OC1(C)C(=O)C=C2C=C(C3CC3)N(Cc3ccc(OC)cc3)C=C2C1=O (stereo not shown)
Ans. 6.903

###

test system: M07e; experiment: Secondary dose-response HTS, Cell Titer Glo; format: cell-based, human; settings: Homo sapiens, M-07e; secondary high-throughput screen; M07e; read-out: average effective concentration, M07e
readout.type: pEC50
Scale note: pEC50 = -log10(concentration in M).

Qu. # pEC50 lookup, item Nc1cc(F)ccc1NC(=O)c1ccc(CNC(=O)/C=C/c2cccnc2)cc1 [CHIDAMIDE]
Ans. 5.82

Qu. # pEC50 lookup, item CC[C@@]1(O)C(=O)OCc2c1cc1n(c2=O)Cc2cc3c(CN(C)C)c(O)ccc3nc2-1
Ans. 5.77

Qu. # pEC50 lookup, item COc1cccc2c1c(O)c(C(=O)N(C)c1ccc(C(F)(F)F)cc1)c(=O)n2C
Ans. 5.92

Qu. # pEC50 lookup, item Cn1ncnc1[C@H]1c2n[nH]c(=O)c3cc(F)cc(c23)N[C@@H]1c1ccc(F)cc1
Ans. 5.04

Qu. # pEC50 lookup, item O=C(Nc1c[nH]nc1-c1nc2ccc(CN3CCOCC3)cc2[nH]1)NC1CC1
Ans. 7.05

Qu. # pEC50 lookup, item C[C@]12O[C@H](C[C@]1(O)CO)n1c3ccccc3c3c4c(c5c6ccccc6n2c5c31)CNC4=O
Ans. 9.00

###

Provide the reported CMK %inh of each item.
tested on: CMK; parameters: species or system AML cell lines (8); Primary HTS, single concentration about 10 uM, Cell Titer Glo viability; log10 luminescence, per cent inhibition relative to cycloheximide control; details: 72 h, relative to cycloheximide control, log10 luminescence; inhibitor
Give just the number in %; leave the unit off.

Qu. # CMK %inh lookup, item Fc1ccc(-c2cc(-c3c[nH]nc3-c3ccccn3)ccn2)cc1 [SJ000573276-1, FCJB/213/107/1]
Ans. 15.4

Qu. # CMK %inh lookup, item CCc1cccc(CC)c1/C=C/c1cncc(C(=O)NC)c1 [SJ000573062-1, U12068/83/1]
Ans. 82.75

Qu. # CMK %inh lookup, item CN(C)CCOc1ccc(-c2nc(-c3ccncc3)c(-c3ccc4c(c3)CC/C4=N\O)[nH]2)cc1 [SJ000573289-1, MM206071-092A1 | SB590885]
Ans. -1.288

Qu. # CMK %inh lookup, item CC(C)(O)Cn1c(=O)c(Oc2ccc(F)cc2F)cc2cnc(NC3CCOCC3)nc21 [SJ000581116-1]
Ans. 6.636

Qu. # CMK %inh lookup, item COc1ccc2nc3cc(Cl)ccc3c(Nc3cc(CN4CCCC4)c(O)c(CN4CCCC4)c3)c2n1 [SJ000518979-1, PYRONARIDINE PHOSPHATE]
Ans. 87.35

Qu. # CMK %inh lookup, item NS(=O)(=O)c1cccc(-c2ccc3c(NC(=O)C4CC4)n[nH]c3c2)c1 [SJ000573205-1, VB100064-175A1]
Ans. 1.524

Qu. # CMK %inh lookup, item CN1CCN(Cc2ccc(-c3cc4ncnc(Nc5ccc(OCc6cccc(F)c6)c(Cl)c5)c4s3)o2)CC1 [SJ000573089-1, U17540/68/2]
Ans. 14.44

###

tested on: CMS; assay: Secondary dose-response HTS, Cell Titer Glo; format: cell-based, human; conditions: Homo sapiens, HTS; secondary high-throughput screen; CMS; read-out: average effective concentration, CMS
Provide the reported log10 EC50 of each item.
Remember, log10 of EC50, in µM.

Qu. # log10 EC50 lookup, item C[C@@H]1C[C@H]2O[C@@H]2/C=C\C=C\C(=O)Cc2c(Cl)c(O)cc(O)c2C(=O)O1
Ans. -0.96

Qu. # log10 EC50 lookup, item CC[C@@]1(O)C(=O)OCc2c1cc1n(c2=O)Cc2cc3c(CN(C)C)c(O)ccc3nc2-1
Ans. 0.86

Qu. # log10 EC50 lookup, item CO[C@@]12[C@H](COC(N)=O)C3=C(C(=O)C(C)=C(N)C3=O)N1C[C@@H]1N[C@@H]12
Ans. 1.00

Qu. # log10 EC50 lookup, item CCOc1ccccc1-n1c(C(C)N2CCN(C(=O)COc3ccc(Cl)cc3)CC2)nc2ccccc2c1=O (stereo not drawn)
Ans. 0.98

Qu. # log10 EC50 lookup, item COc1cc(Nc2ncc3c(n2)-c2ccc(Cl)cc2C(c2c(F)cccc2OC)=NC3)ccc1C(=O)O
Ans. 0.60

Qu. # log10 EC50 lookup, item COC(=O)[C@]12CCC(C)(C)C[C@H]1[C@H]1C(=O)C=C3[C@@]4(C)C=C(C#N)C(=O)C(C)(C)[C@@H]4CC[C@@]3(C)[C@]1(C)CC2
Ans. 0.04
